target: human ACVR2A (human, UniProt P27037 20-135, limits assumed); experiment: ELISA; note: test concentration or dose not given here
Sequence (P27037 20-135 limits assumed): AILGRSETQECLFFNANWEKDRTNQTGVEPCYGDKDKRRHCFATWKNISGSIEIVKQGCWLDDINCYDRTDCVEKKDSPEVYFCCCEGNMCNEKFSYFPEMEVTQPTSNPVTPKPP
parameter: optical density (OD)
Entry rule: numbers only, all in OD.

Sample records with optical density:
INSERT INTO results (binder, result_units, result_value) VALUES
  ('365_F07 (antibody, V domains shown, VH/VL only) VH: EVQLLESGGGLVQPGGSLRLSCAASGFTFSSYSMNWVRQAPGKGLEWVSNINYNGGYKSYADSVKGRFTISRDNSKNTLYLQMNSLRAEDTAVYYCARSATWHDTALDYWGQGTLVTVSS VL: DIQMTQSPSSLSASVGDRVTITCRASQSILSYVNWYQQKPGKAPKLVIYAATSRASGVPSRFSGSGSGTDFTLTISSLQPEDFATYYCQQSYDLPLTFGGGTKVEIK', 'OD', 3.12),
  ('367_C03 (antibody, V domains shown, VH/VL only) VH: EVQLLESGGGLVQPGGSLRLSCAASGFTFSSYSMNWVRQAPGKGLEWVANINYNGGYTGYADSVKGRFTISRDNSKNTLYLQMNSLRAEDTAVYYCARSATWHDTALDYWGQGTLVTVSS VL: DIQMTQSPSSLSASVGDRVTITCRASQSILSYVNWYQQKPGKAPKLVIYATTSRASGVPSRFSGSGSGTDFTLTISSLQPEDFATYYCQQSYENPLTFGGGTKVEIK', 'OD', 2.3),
  ('368_H01 (antibody, V domains shown, VH/VL only) VH: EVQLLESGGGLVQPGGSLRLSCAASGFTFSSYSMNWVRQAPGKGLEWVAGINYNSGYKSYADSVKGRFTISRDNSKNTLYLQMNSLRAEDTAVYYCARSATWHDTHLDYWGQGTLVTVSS VL: DIQMTQSPSSLSASVGDRVTITCRASQSILSYLNWYQQKPGKAPKLLIYATTSLASGVPSRFSGSGSGTDFTLTISSLQPEDFATYYCQQSYDNPLTFGGGTKVEIK', 'OD', 3.03),
  ('372_F07 (antibody, V domains shown, VH/VL only) VH: EVQLLESGGGLVQPGGSLRLSCAASGFTFDDYSMNWVRQAPGKGLEWVAGINYNSGYKGYADSVKGRFTISRDNSKNTLYLQMNSLRAEDTAVYYCARSATWHDTHLDYWGQGTLVTVSS VL: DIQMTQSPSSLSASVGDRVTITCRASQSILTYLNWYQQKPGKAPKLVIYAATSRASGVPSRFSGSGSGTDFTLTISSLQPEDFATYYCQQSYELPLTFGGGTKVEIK', 'OD', 3.25);

Ask | Provide only the value of recorded optical density for 367_H07 (antibody, V domains shown, VH/VL only) VH: EVQLLESGGGLVQPGGSLRLSCAASGFTFSSYSMNWVRQAPGKGLEWVANINYNGGYTGYADSVKGRFTISRDNSKNTLYLQMNSLRAEDTAVYYCARSATWHDTALDYWGQGTLVTVSS VL: DIQMTQSPSSLSASVGDRVTITCRASQSILSYVNWYQQKPGKAPKLVIYATTSRASGVPSRFSGSGSGTDFTLTISSLQPEDFATYYCQQSYENPLTFGGGTKVEIK
Reply | 2.72
